ASSAYED TARGET: human ether-à-go-go-related gene (hERG) potassium channel (human);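 further: peak tail current of the secondary pulse compared with the same well before compound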
EXPERIMENTAL DETAILS: primary screen, population patch clamp on CHO cells stably expressing hERG; higher = less effect of the substance
The whole screen tested about 310,000 compounds, of which about 14,000 (4.5%) showed an effect of 50% or more. The effect is printed as a negative number. The full list was thinned out, with strong results kept by preference.
METRIC: hERG current change (%, negative = inhibition) at 10uM (%)
Number only, in %; omit the unit.

Use the examples below as a reference point.
| COMPOUND SMILES | ASSAYED TARGET | VALUE REPORTED |
| --- | --- | --- |
| CCOC(=O)c1[nH]ncc1[C@@H]1C[C@H]2CN(Cc3cccc(Cl)c3)C(=O)[C@]23CCCN13 | human ether-à-go-go-related gene (hERG) potassium channel (human) | -27.4 |
| CCN(CC)S(=O)(=O)c1ccc(Oc2ccccc2)cc1 | human ether-à-go-go-related gene (hERG) potassium channel (human) | -20.7 |
| O=C1N(Cc2cccc(Cl)c2)C[C@@H]2C[C@@H](c3cccc4ncccc34)N3CCC[C@@]123 | human ether-à-go-go-related gene (hERG) potassium channel (human) | -48.8 |
| COc1ccccc1Oc1ccc(S(=O)(=O)N2CCN(C)CC2)cc1 | human ether-à-go-go-related gene (hERG) potassium channel (human) | -1.98 |

Value of measured hERG current change (%, negative = inhibition) at 10uM for the entry COc1ccccc1Oc1ccc(S(=O)(=O)N2CCCC2)cc1 : -77.3

Value of measured hERG current change (%, negative = inhibition) at 10uM for the entry O=[N+]([O-])c1cc(S(=O)(=O)N2CCCC2)ccc1OCCOc1ccccc1 : -32.4

Value of measured hERG current change (%, negative = inhibition) at 10uM for the entry Cc1c([C@@H]2C[C@H]3CN(Cc4cccc(Cl)c4)C(=O)[C@]34CCCN24)cnn1C : -45.5

Value of measured hERG current change (%, negative = inhibition) at 10uM for the entry COc1cccc(Oc2ccc(S(=O)(=O)N3CCCC3)cc2[N+](=O)[O-])c1 : -57.1

Value of measured hERG current change (%, negative = inhibition) at 10uM for the entry O=C1N(Cc2cccc(Cl)c2)C[C@@H]2C[C@@H](c3c[nH]c4ccccc34)N3CCC[C@@]123 : -74.8

----------
The entries below are paired with their reported hERG current change (%, negative = inhibition) at 10uM.
ASSAYED TARGET: human ether-à-go-go-related gene (hERG) potassium channel (human, UniProt Q12809);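 further: peak tail current of the secondary pulse compared with the same well before compound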
Sequence (Q12809 whole entry, looked up): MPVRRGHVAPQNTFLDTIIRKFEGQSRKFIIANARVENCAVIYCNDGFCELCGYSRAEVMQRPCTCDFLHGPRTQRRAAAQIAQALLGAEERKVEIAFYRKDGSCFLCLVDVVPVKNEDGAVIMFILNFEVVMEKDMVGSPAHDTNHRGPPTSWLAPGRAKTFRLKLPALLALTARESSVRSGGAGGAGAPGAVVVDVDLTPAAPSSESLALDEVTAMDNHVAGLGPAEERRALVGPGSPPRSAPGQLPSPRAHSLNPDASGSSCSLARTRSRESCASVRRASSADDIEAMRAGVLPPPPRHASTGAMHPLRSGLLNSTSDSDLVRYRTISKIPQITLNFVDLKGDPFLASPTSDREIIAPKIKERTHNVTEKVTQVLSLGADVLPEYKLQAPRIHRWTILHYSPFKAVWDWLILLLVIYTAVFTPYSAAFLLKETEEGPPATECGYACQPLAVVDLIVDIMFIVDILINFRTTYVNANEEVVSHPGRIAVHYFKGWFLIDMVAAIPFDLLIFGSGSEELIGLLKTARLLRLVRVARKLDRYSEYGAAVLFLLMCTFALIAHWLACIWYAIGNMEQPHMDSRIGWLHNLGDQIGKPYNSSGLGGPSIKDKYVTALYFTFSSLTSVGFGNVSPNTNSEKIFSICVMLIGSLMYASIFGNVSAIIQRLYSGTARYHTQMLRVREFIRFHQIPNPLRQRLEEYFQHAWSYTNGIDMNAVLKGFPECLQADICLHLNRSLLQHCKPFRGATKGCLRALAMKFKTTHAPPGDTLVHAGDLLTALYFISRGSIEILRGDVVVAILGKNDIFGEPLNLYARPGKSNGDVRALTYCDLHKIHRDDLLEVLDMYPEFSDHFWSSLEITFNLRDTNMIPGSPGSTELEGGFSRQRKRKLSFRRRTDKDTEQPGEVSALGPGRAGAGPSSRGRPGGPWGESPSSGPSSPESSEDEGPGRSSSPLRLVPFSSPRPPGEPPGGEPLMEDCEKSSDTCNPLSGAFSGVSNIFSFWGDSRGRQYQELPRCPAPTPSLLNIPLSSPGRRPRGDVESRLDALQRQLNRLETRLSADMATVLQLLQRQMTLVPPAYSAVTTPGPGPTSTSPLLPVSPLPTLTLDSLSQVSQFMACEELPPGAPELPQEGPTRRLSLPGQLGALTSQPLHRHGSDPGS
EXPERIMENTAL DETAILS: primary screen, population patch clamp on CHO cells stably expressing hERG; higher = less effect of the substance
The campaign covered roughly 310,000 compounds. About 14,000 (4.5%) showed an effect of 50% or more. The effect is printed as a negative number. The sample holds strong results, similar compounds and a random draw of the others, so the mix is not that of the screen.
Number only, in %; omit the unit.

| COMPOUND | VALUE REPORTED |
| --- | --- |
| Cc1ccc(N2C(=O)C(NC(=O)c3ccccc3)(C(F)(F)F)C3=C2CC(C)(C)CC3=O)cc1 (stereo not shown) | 7.2 |
| CCOCCCNC(=O)c1cc(C)nn1-c1ccccc1 | 11 |
| NNC(=O)c1sc2nc(N3CCOCC3)c3c(c2c1N)CCCC3 | 11 |

Value of measured hERG current change (%, negative = inhibition) at 10uM for the entry CC1CCN(C(=O)COC(=O)c2cc3ccccc3cc2O)CC1 : 3.92

Value of measured hERG current change (%, negative = inhibition) at 10uM for the entry Cc1ccsc1C(=O)OCC(=O)NCCNC(=O)COC(=O)c1sccc1C : 15.7

Value of measured hERG current change (%, negative = inhibition) at 10uM for the entry CC(C)(CO)Nc1nc(N2CCCC2)nc(N2CCCC2)n1 : -13.8

----------
ASSAYED TARGET: human ether-à-go-go-related gene (hERG) potassium channel (human, UniProt Q12809);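 further: peak tail current of the secondary pulse compared with the same well before compound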
EXPERIMENTAL DETAILS: primary screen, population patch clamp on CHO cells stably expressing hERG; higher = less effect of the substance
Hit rate of the full screen: of about 310,000 compounds, about 14,000 (4.5%) showed an effect of 50% or more. The effect is printed as a negative number. For the sample, strong results were picked, then their nearest neighbours and some compounds at random.
The entries below are paired with their reported hERG current change (%, negative = inhibition) at 10uM.
Number only, in %; omit the unit.

Use the examples below as a reference point.
| COMPOUND | ASSAYED TARGET | VALUE REPORTED |
| --- | --- | --- |
| Cc1ccc(S(=O)(=O)N2CCCCC2)c2nsnc12 | human ether-à-go-go-related gene (hERG) potassium channel (human, UniProt Q12809) | -54.9 |
| CCCCCCCNC(=O)C1(CC2CC(c3ccc(Cl)cc3)=NO2)CCN(C(=O)c2cc(OCC)c(OCC)c(OCC)c2)CC1 (stereo not drawn) | human ether-à-go-go-related gene (hERG) potassium channel (human, UniProt Q12809) | 17.6 |
| CC1CC(C)CN(C(=O)c2cc(-c3ccncc3)nc3ccccc23)C1 (stereo not drawn) | human ether-à-go-go-related gene (hERG) potassium channel (human, UniProt Q12809) | -35.5 |
| CCc1ccc(NC(=O)C(=O)N/N=C(\C)CC(=O)NCCOC)cc1 | human ether-à-go-go-related gene (hERG) potassium channel (human, UniProt Q12809) | -2.99 |
| CCCNC(=O)C1(CC2CC(c3ccccc3)=NO2)CCN(C(=O)CCCCCBr)CC1 (stereo not drawn) | human ether-à-go-go-related gene (hERG) potassium channel (human, UniProt Q12809) | -50 |

Measured hERG current change (%, negative = inhibition) at 10uM for this entry CC(=O)N(CCCN1CCOCC1)Cc1ccncc1.Cl on human ether-à-go-go-related gene (hERG) potassium channel (human, UniProt Q12809): 16.4

Measured hERG current change (%, negative = inhibition) at 10uM for this entry CCCCCCCNC(=O)C1(CC2CC(c3ccc(Cl)cc3)=NO2)CCN(C(=O)CCCCCBr)CC1 (stereo not drawn) on human ether-à-go-go-related gene (hERG) potassium channel (human, UniProt Q12809): -79

Measured hERG current change (%, negative = inhibition) at 10uM for this entry CN(C)C(=O)C(Sc1ccc(S(=O)(=O)N2CCCC2)cn1)c1ccccc1 (stereo not drawn) on human ether-à-go-go-related gene (hERG) potassium channel (human, UniProt Q12809): -13.4

Measured hERG current change (%, negative = inhibition) at 10uM for this entry COC(=O)[C@@]12CCCN1[C@H](c1ccc(-c3ccc(OC)cc3)c(OC)c1)[C@@H]1C(=O)N(C)C(=O)[C@@H]12.O=C(O)C(F)(F)F on human ether-à-go-go-related gene (hERG) potassium channel (human, UniProt Q12809): -9.37

----------
The entries below are paired with their reported hERG current change (%, negative = inhibition) at 10uM.
ASSAYED TARGET: human ether-à-go-go-related gene (hERG) potassium channel (human);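 further: peak tail current of the secondary pulse compared with the same well before compound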
EXPERIMENTAL DETAILS: primary screen, population patch clamp on CHO cells stably expressing hERG; higher = less effect of the substance
In all, about 310,000 compounds went through this assay and about 14,000 (4.5%) showed an effect of 50% or more. The effect is printed as a negative number. This excerpt belongs to a sample that is enriched for strong results.
Number only, in %; omit the unit.

Use the examples below as a reference point.
| COMPOUND | ASSAYED TARGET | UNIT TAG | VALUE REPORTED |
| --- | --- | --- | --- |
| CCOc1ccc(NC(=O)CN(C)C(=O)c2ccc(N3CCCC3)c([N+](=O)[O-])c2)cc1OCC | human ether-à-go-go-related gene (hERG) potassium channel (human) | % | -49.1 |
| O=C(Cn1nc(C(F)F)cc1C1CC1)N1CCCC1 | human ether-à-go-go-related gene (hERG) potassium channel (human) | % | 1.61 |
| CN(CC(=O)Nc1cccc(F)c1)C(=O)c1ccc(N2CCCCC2)c([N+](=O)[O-])c1 | human ether-à-go-go-related gene (hERG) potassium channel (human) | % | -8.94 |
| O=C(Cc1noc2ccccc12)NNC(=S)Nc1ccc(Cl)cc1 | human ether-à-go-go-related gene (hERG) potassium channel (human) | % | 16.5 |
| COc1ccc(Cl)cc1NC(=O)CN(C)C(=O)c1ccc2c(c1)CC(c1ccccc1)OC2=O (stereo not shown) | human ether-à-go-go-related gene (hERG) potassium channel (human) | % | -41.8 |
| O=C(c1c[nH]c2ccccc12)C(O)C(c1ccccc1)N1CCOCC1 (stereo not shown) | human ether-à-go-go-related gene (hERG) potassium channel (human) | % | -0.703 |

Value of measured hERG current change (%, negative = inhibition) at 10uM for the entry CS(=O)(=O)N(CC(O)Cn1c2ccccc2c2ccccc21)c1cccc2ccccc12 (stereo not shown) : 0.652

Value of measured hERG current change (%, negative = inhibition) at 10uM for the entry CCC1=[N+](CC(=O)c2ccc(Br)cc2)CCn2c(C)ccc21.[Br-] : -6.76

Value of measured hERG current change (%, negative = inhibition) at 10uM for the entry CCCc1cc(=O)[nH]c(SCC(=O)N(CC)Cc2ccccc2)n1 : 7.9

Value of measured hERG current change (%, negative = inhibition) at 10uM for the entry COc1cccc(NC(=O)CN(C)C(=O)c2ccc(N3CCCCC3)c([N+](=O)[O-])c2)c1 : -12.9

Value of measured hERG current change (%, negative = inhibition) at 10uM for the entry Nc1ncncc1-c1ccc([N+](=O)[O-])cc1 : -9.28

Value of measured hERG current change (%, negative = inhibition) at 10uM for the entry CCOc1ccc(C(=O)COC(=O)CN2C(=O)NC3(CCCCC3C)C2=O)cc1 (stereo not shown) : -42.7

Value of measured hERG current change (%, negative = inhibition) at 10uM for the entry COc1cccc(NC(=O)CN(C)C(=O)c2ccc(NC3CC3)c([N+](=O)[O-])c2)c1 : -73.4

Value of measured hERG current change (%, negative = inhibition) at 10uM for the entry COCCN(C(=O)COC(=O)c1cccc2ccccc12)c1c(N)n(Cc2ccccc2)c(=O)[nH]c1=O : -0.159

Value of measured hERG current change (%, negative = inhibition) at 10uM for the entry O=C(Oc1c(-c2ccccc2)c(=O)n2c3c(cccc13)CC2)c1ccccc1 : -9.09

// data source = paper PMC4336329
